The measured values listed here are drawn from paper PMC10092485.

Target or system PmSiaT (Proteus mirabilis): recorded pKd listed per item.
// pKd: -log10(molar conc.)

In the examples that follow, each entry is paired with its recorded pKd.
# molecule, pKd
records = [
    ("CC(=O)N[C@H]1[C@H]([C@H](O)[C@H](O)CO)OC(O)(C(=O)O)C[C@@H]1N1CCC(c2cccc(Br)c2)CC1 (stereo partly drawn) [3 f]", 5.88),
    ("CC(=O)N[C@H]1[C@H]([C@H](O)[C@H](O)CO)OC(O)(C(=O)O)C[C@@H]1N1CCN(C(=O)c2cccc(Cl)c2Cl)CC1 (stereo partly drawn) [6 c]", 6.33),
]

Turning now to a further record.
molecule CC(=O)N[C@H]1[C@H]([C@H](O)[C@H](O)CO)OC(O)(C(=O)O)C[C@@H]1N1CCC(c2cccc(O)c2)CC1 (stereo partly drawn) [3 i] , pKd observed: 4.75
